biological target: SNX27, Q96L92; assay: holdup assay; set-up: key: below the threshold = too weak to quantify, mostly under pKd 3.1 to 4; details: plain residues with an end cap or a label only (N-terminal biotin on a linker: ado-ado)
Observable: pKd

In [3]: df
Out[3]:
                        binder  recorded_measurement
0  HYPASPDSWV [CTNND2, Q9UQB3]                  5.06
1   YAEKRMLTEV [KCNA6, P17658]   below the threshold
2    KPDKQEEFYA [SDC3, O75056]   below the threshold
3   GVHSNDHSVV [LPAR1, Q92633]   below the threshold
4   AHGSTRDQSI [KCNB1, Q14721]   below the threshold
5   GNDPDRGTSI [GRID2, O43424]   below the threshold
6   RGKNRRQSIF [CDK18, Q07002]   below the threshold
